Tested on: PBMC
assay notes: Cytotoxicity against human PBMC cells after 24 hrs by MTT assay
Assay type: cell-based
experimental readout: IC50 (µM)

COc1cc(C(=O)/C=C/c2ccc3ccccc3c2)ccc1O = 35.6
O=C(/C=C/c1ccccc1)c1ccccc1 [CHALCONE] = 27
COc1cc(C(=O)/C=C/c2ccc(N(C)C)cc2)cc(OC)c1OC (mixture of isomers) = 92.5
COc1cc(C(=O)/C=C/c2ccc3ccccc3c2)cc(OC)c1OC = 18
COc1ccc(/C=C/C(=O)c2ccc3c(c2)OCO3)c(OC)c1OC = 81.2

* * *

The entries below come with measured pEC50 values attached.
Test system: HeLa
assay notes: Antimitotic activity in human HeLa cells assessed as cell density loss after 24 hrs by Hoechst 33342 staining
Assay type: functional, cell-based
pEC50: −log10 of the molar value.
experimental readout: pEC50

COc1cc(C(=O)/C=C/c2ccc(N(C)C)cc2)cc(OC)c1OC (mixture of isomers) = 6.45
COc1cc(C(=O)/C=C/c2ccc3ccccc3c2)ccc1O = 5.48
COc1cc(C(=O)/C=C/c2ccc3ccccc3c2)cc(OC)c1OC = 6.16

src = ChEMBL document CHEMBL2375311
